Where do the numbers come from? From the supplement of paper PMC10567573.

B1: TRIM35 (parent)
chain: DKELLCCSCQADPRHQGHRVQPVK

Variants of: B1
Assay: protein stability index of a GFP-peptide fusion (GPS, HEK-293T) (PSI 1-6); higher = more stable;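 note: lentivirally expressed fusions sorted by FACS into six bins by GFP to DsRed ratio, PSI derived from sequencing read proportions per bin multiplied by bin number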
Details: c terminus: a fixed tail appended
endpoint-name: protein stability index

>>> result("A11D")
4.08
>>> result("P22T")
4.03
>>> result("L4K")
4.07
